target: GABA-A receptor; alpha-1/beta-3/gamma-2 (Homo sapiens) (UniProt P14867+P18507+P28472); assay: Efficacy was measured as modulation of the current in response to GABA at hGABA alpha-1-beta-3-gamma-2 receptor expressed in Xenopus oocytes; format: cell-based; conditions: Oocyte
QUANTITY NAME: Efficacy (%)

COMPOUND SMILES: c1ccc(-c2nnc3c4c(c(OCc5cccnc5)nn23)C2CCC4CC2)cc1
TARGET ENTITY: GABA-A receptor; alpha-1/beta-3/gamma-2 (Homo sapiens) (UniProt P14867+P18507+P28472)
OUTPUT UNIT: %
DATA VALUE: 51
--
COMPOUND SMILES: Cc1ccc(COc2nn3c(-c4ccccc4)nnc3c3c2C2CCC3CC2)nc1
TARGET ENTITY: GABA-A receptor; alpha-1/beta-3/gamma-2 (Homo sapiens) (UniProt P14867+P18507+P28472)
OUTPUT UNIT: %
DATA VALUE: 100
--
COMPOUND SMILES: COc1ccc(-c2nnc3c4c(c(OCc5ccccn5)nn23)C2CCC4CC2)cc1
TARGET ENTITY: GABA-A receptor; alpha-1/beta-3/gamma-2 (Homo sapiens) (UniProt P14867+P18507+P28472)
OUTPUT UNIT: %
DATA VALUE: 14
--
COMPOUND SMILES: CN1C(=O)CN=C(c2ccccc2)c2cc(Cl)ccc21
TARGET ENTITY: GABA-A receptor; alpha-1/beta-3/gamma-2 (Homo sapiens) (UniProt P14867+P18507+P28472)
OUTPUT UNIT: %
DATA VALUE: 103
--
COMPOUND SMILES: c1ccc(-c2nnc3c4c(c(OCc5ncc[nH]5)nn23)C2CCC4CC2)cc1
TARGET ENTITY: GABA-A receptor; alpha-1/beta-3/gamma-2 (Homo sapiens) (UniProt P14867+P18507+P28472)
OUTPUT UNIT: %
DATA VALUE: 35

====

molecular target: GABA-A receptor; alpha-3/beta-3/gamma-2 (Homo sapiens, UniProt P18507+P28472+P34903); experiment: Inhibition of [3H]Ro-151788 binding to recombinant human gamma-aminobutyric-acid A receptor alpha-3-beta-3-gamma-2 subtype expressed in L (tk-) cells
Sequence (P18507 whole entry): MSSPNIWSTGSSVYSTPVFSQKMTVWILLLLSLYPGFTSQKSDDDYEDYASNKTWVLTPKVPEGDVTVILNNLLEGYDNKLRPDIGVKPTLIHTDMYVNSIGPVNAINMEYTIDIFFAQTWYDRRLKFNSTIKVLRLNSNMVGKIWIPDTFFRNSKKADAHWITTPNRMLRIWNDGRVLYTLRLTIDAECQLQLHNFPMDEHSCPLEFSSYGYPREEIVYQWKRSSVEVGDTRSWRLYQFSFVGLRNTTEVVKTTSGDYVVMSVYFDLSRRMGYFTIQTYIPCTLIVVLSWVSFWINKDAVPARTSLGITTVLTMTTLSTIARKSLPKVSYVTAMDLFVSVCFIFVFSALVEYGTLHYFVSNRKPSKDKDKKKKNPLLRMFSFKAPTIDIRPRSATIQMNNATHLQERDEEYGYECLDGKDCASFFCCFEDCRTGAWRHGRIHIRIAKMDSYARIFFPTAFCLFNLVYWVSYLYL
Sequence (P28472 whole entry): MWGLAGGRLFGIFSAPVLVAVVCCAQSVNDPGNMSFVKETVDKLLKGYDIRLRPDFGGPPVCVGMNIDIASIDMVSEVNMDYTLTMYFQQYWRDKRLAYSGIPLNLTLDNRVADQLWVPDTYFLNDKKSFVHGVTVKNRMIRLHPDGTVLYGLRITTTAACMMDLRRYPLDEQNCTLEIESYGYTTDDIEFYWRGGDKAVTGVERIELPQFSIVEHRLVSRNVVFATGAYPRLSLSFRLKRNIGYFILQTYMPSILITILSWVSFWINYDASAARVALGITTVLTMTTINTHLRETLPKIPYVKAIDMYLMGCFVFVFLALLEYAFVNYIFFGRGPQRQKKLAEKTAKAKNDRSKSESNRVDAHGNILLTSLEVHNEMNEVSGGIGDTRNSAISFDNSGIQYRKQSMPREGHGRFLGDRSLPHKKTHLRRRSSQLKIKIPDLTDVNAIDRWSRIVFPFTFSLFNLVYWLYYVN
Sequence (P34903 whole entry): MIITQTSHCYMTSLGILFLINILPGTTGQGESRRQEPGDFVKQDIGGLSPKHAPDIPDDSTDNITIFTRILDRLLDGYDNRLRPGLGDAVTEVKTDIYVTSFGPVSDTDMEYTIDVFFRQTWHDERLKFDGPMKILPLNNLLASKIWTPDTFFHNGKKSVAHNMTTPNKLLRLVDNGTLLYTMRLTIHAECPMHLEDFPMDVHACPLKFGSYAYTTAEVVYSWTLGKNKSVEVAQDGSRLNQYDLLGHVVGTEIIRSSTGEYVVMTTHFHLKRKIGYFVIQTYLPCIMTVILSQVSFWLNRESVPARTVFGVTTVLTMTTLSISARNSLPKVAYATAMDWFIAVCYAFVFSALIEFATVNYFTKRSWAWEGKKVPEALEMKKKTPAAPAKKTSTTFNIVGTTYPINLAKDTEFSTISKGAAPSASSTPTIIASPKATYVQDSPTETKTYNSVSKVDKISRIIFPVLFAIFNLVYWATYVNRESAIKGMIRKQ
pKi: −log10 of the molar value.
Note to self: values exactly at 7 are 1. So pKi at or above 7 is 1, below is 0.

MOLECULE: Cn1nnnc1COc1nn2c(-c3ccccc3)nnc2c2c1C1CCC2CC1
CLASS NAME: 1

MOLECULE: N#Cc1cccnc1COc1nn2c(-c3ccccc3)nnc2c2c1C1CCC2CC1
CLASS NAME: 1

MOLECULE: CN1CCCCC1COc1nn2c(-c3ccccc3)nnc2c2c1C1CCC2CC1 (stereo unspecified)
CLASS NAME: 0

MOLECULE: OCC1CCC(COc2nn3c(-c4ccccc4)nnc3c3c2C2CCC3CC2)CC1 (stereo in doubt)
CLASS NAME: 0

MOLECULE: Cc1cnc(COc2nn3c(-c4ccccc4)nnc3c3c2C2CCC3CC2)c(C)c1
CLASS NAME: 1

MOLECULE: c1ccc(COc2nn3c(-c4cccnc4)nnc3c3c2C2CCC3CC2)nc1
CLASS NAME: 1

MOLECULE: OCc1ccc(COc2nn3c(-c4ccccc4)nnc3c3c2C2CCC3CC2)cc1
CLASS NAME: 1

MOLECULE: c1ccc(-c2nnc3c4c(c(OCc5ncc[nH]5)nn23)C2CCC4CC2)cc1
CLASS NAME: 1

MOLECULE: O=C(Nc1ccccn1)c1nn2c(-c3ccccc3)nnc2c2c1C1CCC2CC1
CLASS NAME: 0

MOLECULE: Cc1ccc(COc2nn3c(-c4ccccc4)nnc3c3c2C2CCC3CC2)nn1
CLASS NAME: 1

MOLECULE: Cc1conc1COc1nn2c(-c3ccccc3)nnc2c2c1C1CCC2CC1
CLASS NAME: 1

MOLECULE: COc1ccc(-c2nnc3c4c(c(OCc5ccccn5)nn23)C2CCC4CC2)cc1
CLASS NAME: 1

MOLECULE: c1ccc(COc2nn3c(C4CC4)nnc3c3c2C2CCC3CC2)nc1
CLASS NAME: 1

MOLECULE: COC(=O)c1cccnc1COc1nn2c(-c3ccccc3)nnc2c2c1C1CCC2CC1
CLASS NAME: 1

MOLECULE: Cc1noc(COc2nn3c(-c4ccccc4)nnc3c3c2C2CCC3CC2)n1
CLASS NAME: 1

MOLECULE: Cc1ccnc(COc2nn3c(-c4ccccc4)nnc3c3c2C2CCC3CC2)c1C
CLASS NAME: 1

MOLECULE: CCCn1cnc(COc2nn3c(-c4ccccc4)nnc3c3c2C2CCC3CC2)n1
CLASS NAME: 1

MOLECULE: c1ccc(-c2nnc3c4c(c(OCc5nccs5)nn23)C2CCC4CC2)cc1
CLASS NAME: 1

MOLECULE: CCOc1cccnc1COc1nn2c(-c3ccccc3)nnc2c2c1C1CCC2CC1
CLASS NAME: 1

MOLECULE: CN1CCCC(COc2nn3c(-c4ccccc4)nnc3c3c2C2CCC3CC2)C1 (stereo unspecified)
CLASS NAME: 0

MOLECULE: O=C(COc1nn2c(-c3ccccc3)nnc2c2c1C1CCC2CC1)N1CCCC1
CLASS NAME: 1

MOLECULE: Cc1cccc(COc2nn3c(-c4ccccc4)nnc3c3c2C2CCC3CC2)n1
CLASS NAME: 1

MOLECULE: Cc1cccnc1COc1nn2c(-c3ccccc3)nnc2c2c1C1CCC2CC1
CLASS NAME: 1

MOLECULE: c1ccc(COc2cccnc2COc2nn3c(-c4ccccc4)nnc3c3c2C2CCC3CC2)cc1
CLASS NAME: 1

MOLECULE: Cc1ccc(-c2nnc3c4c(c(OCc5ccccn5)nn23)C2CCC4CC2)cc1
CLASS NAME: 1

MOLECULE: Fc1ccccc1-c1nnc2c3c(c(OCc4ccccn4)nn12)C1CCC3CC1
CLASS NAME: 1

MOLECULE: Cc1ccc(-c2nc3ccc(C)cn3c2CC(=O)N(C)C)cc1 [ZOLPIDEM]
CLASS NAME: 0

MOLECULE: Cc1ccccc1-c1nnc2c3c(c(OCc4ccccn4)nn12)C1CCC3CC1
CLASS NAME: 0

MOLECULE: COc1ccccc1-c1nnc2c3c(c(OCc4ccccn4)nn12)C1CCC3CC1
CLASS NAME: 0

MOLECULE: OCC1CCC(COc2nn3c(-c4ccccc4)nnc3c3c2C2CCC3CC2)CC1 (trans isomer)
CLASS NAME: 1

MOLECULE: c1ccc(-c2nnc3c4c(c(OCc5cnccn5)nn23)C2CCC4CC2)cc1
CLASS NAME: 1

MOLECULE: Cn1cnc(COc2nn3c(-c4ccccc4)nnc3c3c2C2CCC3CC2)n1
CLASS NAME: 1

MOLECULE: c1ccc(-c2nnc3c4c(c(OCc5ccncn5)nn23)C2CCC4CC2)cc1
CLASS NAME: 1

MOLECULE: Clc1ccc(COc2nn3c(-c4ccccc4)nnc3c3c2C2CCC3CC2)nn1
CLASS NAME: 1

MOLECULE: Cc1ccc(C)c(COc2nn3c(-c4ccccc4)nnc3c3c2C2CCC3CC2)n1
CLASS NAME: 1

MOLECULE: Cn1ccnc1COc1nn2c(-c3ccccc3)nnc2c2c1C1CCC2CC1
CLASS NAME: 1
